Values compiled from patent US4780281A.

Molecular target: Prostaglandin H Synthase (Ovis aries, UniProt P05979)
Sequence (P05979 25-600): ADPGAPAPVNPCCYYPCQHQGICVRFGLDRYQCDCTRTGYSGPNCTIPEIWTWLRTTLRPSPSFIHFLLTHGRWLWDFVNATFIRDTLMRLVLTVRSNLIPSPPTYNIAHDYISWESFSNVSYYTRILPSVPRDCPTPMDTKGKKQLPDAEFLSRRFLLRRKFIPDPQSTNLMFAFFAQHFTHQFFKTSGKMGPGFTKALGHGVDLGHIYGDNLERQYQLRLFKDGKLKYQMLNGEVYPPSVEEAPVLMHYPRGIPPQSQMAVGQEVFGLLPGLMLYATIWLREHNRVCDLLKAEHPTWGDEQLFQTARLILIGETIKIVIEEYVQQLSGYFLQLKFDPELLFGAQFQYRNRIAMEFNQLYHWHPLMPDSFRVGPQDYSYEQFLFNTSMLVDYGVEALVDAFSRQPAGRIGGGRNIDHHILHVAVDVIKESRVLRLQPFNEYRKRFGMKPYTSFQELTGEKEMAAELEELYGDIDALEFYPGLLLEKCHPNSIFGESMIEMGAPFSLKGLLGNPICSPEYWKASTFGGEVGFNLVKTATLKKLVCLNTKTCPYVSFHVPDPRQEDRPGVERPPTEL
Assay: Reducing substrate efficiency for PPHP reduction, conditions as for Table 1
Assay type: biochemical
Conditions: Prostaglandin H synthase, under the conditions for Table 1
observable: Index of Efficiency of Reducing Substrates

compound	subjectOfTest	testValue
CC1=NN(CCOc2ccc3ccccc3c2)C(=O)C1	Prostaglandin H Synthase (Ovis aries, UniProt P05979)	.80
Cc1ccc(Cl)c(Nc2ccccc2C(=O)O)c1Cl [Meclofenamate]	Prostaglandin H Synthase (Ovis aries, UniProt P05979)	.35
CC(C(=O)O)c1ccc(-c2ccccc2)c(F)c1 (stereo not shown)	Prostaglandin H Synthase (Ovis aries, UniProt P05979)	.12
COc1ccc2c(c1)c(C(C)C(=O)O)c(C)n2Cc1ccc(SC)cc1 (stereo not shown)	Prostaglandin H Synthase (Ovis aries, UniProt P05979)	.26
O=C(O)Cc1ccccc1Nc1c(Cl)cccc1Cl	Prostaglandin H Synthase (Ovis aries, UniProt P05979)	.50

// map CCCCC1C(=O)N(c2ccccc2)N(c2ccc(O)cc2)C1=O (stereo not shown) to recorded Index of Efficiency of Reducing Substrates (system: Prostaglandin H Synthase (Ovis aries, UniProt P05979))
.71
